Reference source: paper PMC7826789

Assign Percent Control to each entry below.
System: WNK3;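 further: KINOMEscan scanMAX binding as percent activity remaining versus control; lower means stronger binding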
protocol_conditions: Compound Concentration (nM):1000
Quick note: give the figure in %, leave out the unit.

Value lookup for Percent Control; key = COC(=O)Nc1nc2ccc(Oc3ccc(NC(=O)Nc4cc(C(F)(F)F)ccc4F)cc3)cc2s1.Cl [GW693917A]
100

Value lookup for Percent Control; key = Cc1cc(O)cc(C)c1/C=C/c1cncc(C(N)=O)c1 [GW435821X]
93

Value lookup for Percent Control; key = COc1cc(N2CCN(C(C)C)CC2)ccc1Nc1nc(Nc2ccc(F)cc2C(=O)NC[C@@H](O)CO)c2cc[nH]c2n1 [GSK1392956A]
100

Value lookup for Percent Control; key = CC(C)COC(=O)c1ccc2c(c1)/C(=C/Nc1ccc(S(N)(=O)=O)cc1)C(=O)N2 [GW416981X]
100
